- Assay Target: recombinant human chymase (Homo sapiens)
- Sequence (P23946 22-247): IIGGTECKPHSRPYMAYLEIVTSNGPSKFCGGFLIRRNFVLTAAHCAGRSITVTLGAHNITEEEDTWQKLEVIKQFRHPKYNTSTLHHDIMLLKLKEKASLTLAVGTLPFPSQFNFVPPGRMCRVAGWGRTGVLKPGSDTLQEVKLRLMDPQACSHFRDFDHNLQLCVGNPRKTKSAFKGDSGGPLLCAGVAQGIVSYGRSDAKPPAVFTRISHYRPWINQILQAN
- Assay Method Text: reversal of chymase-induced decrease of IL-18 levels in human saliva (ELISA)
- Test Conditions: 80 nM chymase; 37° C., 1 hr; n=3; ELISA; read-out: IC50 for reversal of chymase-induced IL-18 reduction
Catalogue of IC50 readings, one per entry.
// note: answer is a bare numeric in nM

The recorded IC50 for O=C(N/C=C/c1cc(Cl)cc(Cl)c1)C(c1csc2ccc(Cl)cc12)P(=O)(O)O (centres unmarked) [COMPOUND NO. 3] is 3600

The recorded IC50 for CC(C)OC(=O)OCOP(=O)(O)C(C(=O)N/C=C/c1cc(Cl)cc(Cl)c1)c1csc2ccc(Cl)cc12 (centres unmarked) [COMPOUND NO. 2] is 1460
